Recorded values, source the PETadex activity labels (doi:10.1038/s41467-025-61599-z).

PROTOCOL: Proxy for plastic degradation [UPLC/UHPLC]
ASSAY_CONTEXT: pH 9; 55 °C
Kindly supply the reported Proxy for plastic degradation values for the records listed here.
Answer with a number only, understood to be in µM.

# input Give its Proxy for plastic degradation value. Item: unnamed (protein) MKTNRRTLMLTGIAMTIGTAGRAAQATPEFKPQPGPLSIKSAAAISFRVEDQAKDLQIRVTYPDGPGPWPAIIFSHGAMSSKDFYNRVADHWATHGYATILPTHLDSESLGYSFKNPLPREKVFFGRIGDMQFILNHLDEIAGKAGIAGKIEKTKLAVAGHSFGGWTSLILAGLPVKMPDGSLKSFADSRIKALVSYNGIGPMDEIPDAAWAKVAIPVFAASGTNDPGATGSGPVHPWRWRIGAYDYAGSKEKYAVSITMGDHYYGGLICREGAGGKPDPEGLSFVNGSSTAFMDAYLKDDKSAKKFLRTADLRPLTNDRAFLERS
# output 17.3

# input Give its Proxy for plastic degradation value. Item: unnamed (protein) MRVLAMTLALVASTLATPTALAAPPDYGLPGSYPVAYSDVTAVAGGRSVPARVHYPATTSGTNQPVATGRFPVIAFGHGFFQATSKYTSTSTHLASWGFVVVVPTTQGGLSPSHGAFADDLNTGLTWLVAQDGTTGSRFRDHITTTALGVSGHSMGGGAAVLAAARNPKIKAVSTYAAAETNPSAKAAAATLAAPAQFLAGSQDTITPVGDHQRPMFTAKPPARQLRTITGGFHCGFMDSSGLFCDNGSITRAAQLTASKRVMTSWFRHYLSGDTAARDLVWGQPARTDPAVVFEGTE
# output 16.2
